Each record here notes measured MIC.
Test system: Staphylococcus aureus
METHOD NOTES: In vitro antibacterial activity against Staphylococcus aureus (CN491)
Numbers only here, please. The scale is µg/mL.

Example results:
{"STRUCTURE AS SMILES": "CCc1ccc(Cc2cnc(N)nc2N)cc1", "UNITS OF MEASURE": "µg/mL", "MIC": 30}
{"STRUCTURE AS SMILES": "CCc1ccc(Cc2cnc(N)nc2N)cc1C(C)C", "UNITS OF MEASURE": "µg/mL", "MIC": 3}
{"STRUCTURE AS SMILES": "COc1ccc(Cc2cnc(N)nc2N)cc1OC", "UNITS OF MEASURE": "µg/mL", "MIC": 5}
{"STRUCTURE AS SMILES": "CCc1ccc(Cc2cnc(N)nc2N)cc1CC", "UNITS OF MEASURE": "µg/mL", "MIC": 3}
{"STRUCTURE AS SMILES": "CC(C)c1ccc(Cc2cnc(N)nc2N)cc1", "UNITS OF MEASURE": "µg/mL", "MIC": 8}

Next item in the queue.
Qu. Give the reported MIC for this compound. `COc1cc(Cc2cnc(N)nc2N)cc(OC)c1OC`
Ans. 0.3
